experiment: Brain levels (kp and kpu,u) after oral administration; format: in vivo, CDI mice; conditions: CDI, mouse, brain / plasma, po, 20 mg/kg, mice, 20 mpk PO, whole brain AUC over 24 h divided by plasma AUC; read-out: kp (code)
measuredParameter: Kp at 24 h

Field: example entries. Status: answers known.
compound: CC1(C)COCC[C@@H]1Nc1nnc(-c2ccc(C(F)F)cc2O)c2ccncc12 (single isomer, unassigned) [Compound 17]
Kp at 24 h: > 0.3
--
compound: CC1(C)C[C@@H](Nc2nnc(-c3ccc(Cl)cc3O)c3ccncc23)CO1 [Comparative Example 3, reference compound]
Kp at 24 h: > 0.3
--
compound: Cc1cc(O)c(-c2nnc(N[C@H]3COC(C)(C)C3)c3cnccc23)c(Cl)c1 (single isomer, unassigned) [Compound 26*]
Kp at 24 h: ≤ 0.3
--
compound: C[C@H]1COCC[C@H]1Nc1nnc(-c2ccc(Cl)cc2O)c2ccncc12 (single isomer, unassigned) [Compound 18*]
Kp at 24 h: > 0.3

Challenge: Answer with the recorded Kp at 24 h for the compound listed here: CC1(C)C[C@@H](Nc2nnc(-c3ccc(Cl)cc3O)c3ccncc23)CCO1 (single isomer, unassigned) [Compound 4*]
Response given: > 0.3

Challenge: Please look at this compound and report its Kp at 24 h: CC1(C)C[C@@H](Nc2nnc(-c3ccc(C(F)F)cc3O)c3ccncc23)CO1 (single isomer, unassigned) [Compound 23]
Response given: ≤ 0.3

Challenge: Tell me measured Kp at 24 h for CC1(C)C[C@H](Nc2nnc(-c3ccc(C(F)F)cc3O)c3ccncc23)CO1 (single isomer, unassigned) [Compound 23B] please.
Response given: ≤ 0.3

Challenge: Indicate the recorded Kp at 24 h value for this compound: Cc1ccc(-c2nnc(N[C@H]3COC(C)(C)C3)c3cnccc23)c(O)c1 [Compound 5]
Response given: > 0.3

Challenge: Return value of Kp at 24 h for input CC1(C)COCC[C@@H]1Nc1nnc(-c2ccc(C(F)(F)F)cc2O)c2ccncc12 (single isomer, unassigned) [Compound 15] , no commentary.
Response given: > 0.3

* * *

assay: Brain levels (kp and kpu,u) after oral administration; format: in vivo, CDI mice; conditions: CDI, mouse, brain / plasma, po, 20 mg/kg, mice, 20 mpk PO, whole brain AUC over 24 h divided by plasma AUC; read-out: kp (raw)
Please assign not fulfilled whenever Kp at 24 h is at or above 0.4, and fulfilled whenever it is below.

Challenge: Given CC1(C)COC[C@@H]1Nc1nnc(-c2ccc(Cl)cc2O)c2ccncc12 (single isomer, unassigned) , is recorded Kp at 24 h strictly lower than 0.4?
Response given: not fulfilled

Challenge: Answer whether the molecule C[C@@H]1C[C@H](Nc2nnc(-c3ccc(Cl)cc3O)c3ccncc23)CCO1 (single isomer, unassigned) [Compound 25A*] has Kp at 24 h strictly less than 0.4
Response given: not fulfilled

Challenge: Threshold test, Kp at 24 h < 0.4: [2H]C([2H])([2H])OC(C)(C)CNc1nnc(-c2ccc(C(F)F)cc2O)c2ccncc12
Response given: fulfilled

Challenge: Just wondering, is Kp at 24 h of Cc1ccc(-c2nnc(N[C@H]3CCC(C)(C)OC3)c3cnccc23)c(O)c1 (single isomer, unassigned) below 0.4?
Response given: fulfilled

Challenge: A record lists C[C@H]1C[C@H](Nc2nnc(-c3ccc(Cl)cc3O)c3ccncc23)CCO1 (single isomer, unassigned) [Compound 25C*] . Is its Kp at 24 h below 0.4?
Response given: not fulfilled

* * *

test: Brain levels (kp and kpu,u) after oral administration; format: in vivo, CDI mice; conditions: CDI, mouse, brain / plasma, po, 20 mg/kg, mice, 20 mpk PO, whole brain AUC over 24 h divided by plasma AUC; read-out: kp (raw)
measuredParameter: Kp at 24 h
Answer with a number only.

Known results for compounds:
compound: CC1(C)C[C@@H](Nc2nnc(-c3ccc(Cl)cc3O)c3ccncc23)CO1 [Comparative Example 3, reference compound]
Kp at 24 h: 0.4
//
compound: Oc1cc(Cl)ccc1-c1nnc(N[C@H]2CCOC2)c2cnccc12 (single isomer, unassigned) [Compound 7*, reference compound]
Kp at 24 h: 0.13
//
compound: CC1(C)C[C@H](Nc2nnc(-c3ccc(OC(F)F)cc3O)c3ccncc23)CO1 (single isomer, unassigned)
Kp at 24 h: 0.4
//
compound: Cc1ccc(-c2nnc(N[C@H]3COC(C)(C)C3)c3cnccc23)c(O)c1F (single isomer, unassigned)
Kp at 24 h: 0.33

Shift focus to the following entry.
Challenge: Hello, please tell me recorded Kp at 24 h for this one: C[C@@H]1C[C@@H](Nc2nnc(-c3ccc(Cl)cc3O)c3ccncc23)CCO1 (single isomer, unassigned) [Compound 25D*]
Response given: 1
